Every entry's value here was drawn from PubChem BioAssay (NCI).

# System: HCT-15 colon
# assay-comment: NCI-60 one-dose screen, 48 h (100 = growth as untreated, 0 = no growth, -100 = all killed)
# condition-summary: 10 µM unless noted
The panel holds about 83,000 compounds, 20% with a hit somewhere; the sample as a whole holds those more often. Calls of active or inactive are those of the source. Rule for the calls: active = growth percent below 10; inactive = the rest.
assay-metric: growth

Examples with their reported growth follow.
Cn1cc(-c2nc3c(F)cc4[nH]ncc4c3c3c2CCCC3)c(C(F)F)n1 :: 66.6% (inactive)
COc1ccc(-c2cc(-c3cccc(Cl)c3)c(C#N)c(=O)[nH]2)c(OC)c1 :: 97.7% (inactive)
ON=C1CCCCCCCC1 :: 105% (inactive)
C#CCOCC1CN(C)C(=O)O1 (stereo not drawn) :: 98.1% (inactive)
COc1ccc(N2CCN(S(=O)(=O)c3oc(-c4ccccc4)nc3C#N)CC2)cc1 :: 9.51% (active)

Need growth for each of these compounds.
1. Nc1n[nH]c2cccc(C#Cc3cccc(NC(=O)c4ccc(N5CCOCC5)c(C(F)(F)F)c4)c3)c12
2. CC/C=C\C/C=C\C[C@H](O)C/C=C1/C(=O)C=C[C@@H]1C/C=C\CCCC(=O)OC
3. O=C1/C(=C/c2ccccc2)CN(C(=O)C(Cl)Cl)C/C1=C\c1ccccc1
4. O=S(=O)(Nc1ccc(F)cc1)c1ccc(-c2cnc(C3CC3)o2)cc1
5. N#Cc1c(N)nnn1Cc1cc(=O)oc2ccc(O)cc12
6. CCCCCCCC/C=C\CCCCCCCCOc1ccccc1CC(=O)NCC[N+]1(C)CCOCC1
7. OB(O)c1ccsc1-c1nc2ccc3[nH]ncc3c2c2c1CCCC2

Output:
1. 8.44% (active)
2. -25.8% (active)
3. -24.2% (active)
4. 19.9% (inactive)
5. 110% (inactive)
6. 92.5% (inactive)
7. 31.3% (inactive)

Need growth for each of these compounds.
1. COCCn1cc(-c2csc(-c3cn(C)c4ccc(F)cc34)n2)c2cccnc21
2. Cc1cc2nc(C(Cl)Cl)nc(-c3ccc(Cl)cc3)n2n1
3. CCOC(=O)c1cnn(CC(O)CC)c1NC(=O)NCc1ccccc1C(F)(F)F (stereo not drawn)
4. O=C(Nc1ncc(Cc2cccc(C(F)(F)F)c2)s1)c1ccc2c(c1)OCCO2
5. S=c1nc(CS)[nH]c2ccccc12
6. COc1cc(Nc2nc3ccccc3cc2C(=O)Nc2ccc(F)c(F)c2)cc(OC)c1OC
7. CCNC(=S)n1nc(SC)c(C(=O)OCC)c1N

Output:
27.9% (inactive)
-20.4% (active)
103% (inactive)
8.27% (active)
93.2% (inactive)
13.5% (inactive)
96.3% (inactive)

Need growth for each of these compounds.
1. Cc1ccc(-c2nc(C#N)c(S(=O)(=O)N(C)C)o2)cc1
2. Nc1nc2ccccc2c2c(=O)c3ccc(Cl)cc3sc12
3. COc1ccccc1/C=C1\COc2ccc(O)c(O)c2C1=O
4. CCN(CC)CC(=O)Nc1ccc2ncnc(Nc3ccc(Oc4cccc(F)c4)c(Cl)c3)c2c1

Output:
1: 19.7% (inactive); 2: 101% (inactive); 3: -13.3% (active); 4: 17.6% (inactive)

====

# System: MALME-3M melanoma
# assay-comment: NCI-60 one-dose screen, 48 h (100 = growth as untreated, 0 = no growth, -100 = all killed)
# condition-summary: 10 µM unless noted
Compounds without any hit were thinned out: in the full panel of roughly 83,000, 20% have a hit.
Lab note: anything with growth below 70% is marked Yes; values at 70% or higher are marked No.

CC(C)=CCc1cc(O)c(O)c2oc3cc(O)cc(O)c3c(=O)c12 :: No

Input: Hello, I'm reviewing records and need to know if growth of Cc1nn(-c2nc(-c3cc4ccccc4oc3=O)cs2)c(C)c1N=Nc1ccccc1 is below 70%. Could you check?
Output: No

Input: Hello, I'm reviewing records and need to know if growth of O=C(Nc1ncc(Cc2cccc(C(F)(F)F)c2)s1)c1ccc(-n2cnnn2)cc1 is below 70%. Could you check?
Output: Yes

Input: Hello, I'm reviewing records and need to know if growth of COc1cc(/C=C(/c2ccccc2)[N+](=O)[O-])c(OC)c2c1OCO2 is below 70%. Could you check?
Output: Yes

Input: Hello, I'm reviewing records and need to know if growth of N#C/C(=C\c1ccc(Br)cc1)n1nnc2c(F)cccc21 is below 70%. Could you check?
Output: Yes

Input: Hello, I'm reviewing records and need to know if growth of Nc1[nH]nc(Nc2ccccc2)c1-c1nc2ccccc2s1 is below 70%. Could you check?
Output: No

Input: Hello, I'm reviewing records and need to know if growth of O=C(/C=C/c1ccc([N+](=O)[O-])cc1)c1ccccc1 is below 70%. Could you check?
Output: No

Input: Hello, I'm reviewing records and need to know if growth of Cn1cc(-c2csc(-c3cn(CCOC(N)=O)c4ccccc34)n2)c2cccnc21 is below 70%. Could you check?
Output: Yes

Input: Hello, I'm reviewing records and need to know if growth of CCOC(=O)C(=CCC(C)C)C(=O)OCC is below 70%. Could you check?
Output: No

Input: Hello, I'm reviewing records and need to know if growth of CCCCCCCCCCCCCCCC(=O)O[C@@H]1[C@@H](O)[C@@H](O)C([C@H](NC(=O)[C@@H]2C[C@@H](CCC)CN2C)[C@H](C)Cl)O[C@@H]1SC (stereo partly specified) is below 70%. Could you check?
Output: No

Input: Hello, I'm reviewing records and need to know if growth of O=C1c2cccc3cccc(c23)C(=O)N1N1C(=O)c2cccc3c(N4CCNCC4)ccc(c23)C1=O is below 70%. Could you check?
Output: No

Input: Hello, I'm reviewing records and need to know if growth of CCCCC1COc2cccc3c2N1C=C/C3=C\C(=O)N(C)c1cccc(Cl)c1 (stereo unspecified) is below 70%. Could you check?
Output: No

Input: Hello, I'm reviewing records and need to know if growth of COC1/C=C/OC2(C)Oc3c(C)c(O)c4c(O)c(c(C=NOC(c5ccccc5)c5ccccc5)c(O)c4c3C2=O)NC(=O)/C(C)=C/C=C/C(C)C(O)C(C)C(O)C(C)C(OC(C)=O)C1C (stereo unspecified) is below 70%. Could you check?
Output: Yes

Input: Hello, I'm reviewing records and need to know if growth of C[C@@H]1O[C@@H](O[C@H]2[C@@H](OC(=O)[C@]34CCC(C)(C)C[C@H]3C3=CC[C@@H]5[C@@]6(C)C[C@H](O)[C@H](O[C@@H]7O[C@H](CO)[C@@H](O)[C@H](O)[C@H]7O)[C@@](C)(CO)[C@@H]6CC[C@@]5(C)[C@]3(C)C[C@H]4O)OC[C@@H](O)[C@@H]2O)[C@H](O)[C@H](O[C@@H]2OC[C@@H](O)[C@H](O[C@@H]3OC[C@](O)(CO)[C@H]3O[C@@H]3OC[C@@H](O)[C@H](O)[C@H]3O)[C@H]2O)[C@H]1O[C@@H]1OC[C@](O)(CO)[C@H]1O is below 70%. Could you check?
Output: No

Input: Hello, I'm reviewing records and need to know if growth of O=C1/C(=C/c2ccc(F)c(F)c2)CN(C(=O)C(Cl)Cl)C/C1=C\c1ccc(F)c(F)c1 is below 70%. Could you check?
Output: Yes

Input: Hello, I'm reviewing records and need to know if growth of Nc1nc2ccccc2c2c(=O)c3ccc(Cl)cc3sc12 is below 70%. Could you check?
Output: No
